System: CCRF-CEM leukemia
Assay: NCI tumour cell line growth inhibition, 48 h; in the data active means GI50 below about 0.43 µM; inactive means the rest
Mark one answer only. Choices: active, inactive

Prompt: Any idea what this test logged for CCN(CC)CCC(CNc1ccnc2cc(Cl)ccc12)c1ccc(Cl)cc1 (stereo not drawn) ?
Response: inactive

Prompt: Any idea what this test logged for COC(=O)c1ccc2c(c1)nc(NC(=O)c1ccccc1)n2CCCc1ccccc1 ?
Response: inactive

Prompt: Any idea what this test logged for CC1(C)N=C(N)N=C(N)N1c1ccc(CCCCc2ccc(Cl)cc2S(=O)(=O)F)c(Cl)c1 ?
Response: active

====

System: SF-295 CNS
Test: NCI tumour cell line growth inhibition, 48 h
So I've got a bunch of compounds here, and I need their TGI values.

Reference set, count: 8
{"compound": "Cn1c(I)c(C#CCO[Si](C)(C)C(C)(C)C)c(=O)[nH]c1=O", "TGI": "> 100 µM"}
{"compound": "Cc1ccc(SC2c3ccc(C)cc3Oc3nc(N)c(C#N)c(N)c32)cc1 (stereo unspecified)", "TGI": "19.5 µM"}
{"compound": "CC(C)CCC1CC2C(=O)N(c3ccccc3)C(=O)C2c2[nH]c3ccccc3c21 (stereo unspecified)", "TGI": "2.86 µM"}
{"compound": "O=C(/C=C/c1ccccc1)CCC1C(=O)c2ccccc2C1=O", "TGI": "> 100 µM"}
{"compound": "COC(=O)c1ccc(/C=C/c2cc(O)ccc2O)cc1", "TGI": "> 100 µM"}
{"compound": "CCCC(=O)OCC1OC(n2ccc(N)nc2=O)C(OC(=O)CCC)C1OC(=O)CCC (stereo unspecified)", "TGI": "> 100 µM"}
{"compound": "O=S(=O)(O)CCCc1cccc2ccccc12", "TGI": "> 100 µM"}
{"compound": "O=C(O)COc1ccc2c(=O)c3sc4c(=O)c5ccccc5c(=O)c4c3c(=O)c2c1", "TGI": "20.6 µM"}

Go through the list and state TGI for each entry.
1. O=C1CCC2(c3ccc(Cl)cc3)Nc3ncccc3N12 (stereo unspecified)
2. CC1(C)S[C@@H]2[C@H](NC(=O)C3(N)CCCCC3)C(=O)N2[C@H]1C(=O)O
3. BrC1=C(Br)C2(SCCS2)[C@H]2C[C@@H]1c1ccccc12
4. O=C(Nc1ccc2ncccc2c1)Nc1ccc2ncccc2c1

Response:
["> 100 µM", "> 100 µM", "> 100 µM", "> 100 µM"]

Go through the list and state TGI for each entry.
1. NC(=S)N/N=C/C(=O)O
2. O=c1sc2ccccc2n1CC1CS1 (stereo unspecified)
3. COc1ccccc1/C=N\N/C(N)=N\N=C\c1ccccc1OC

Response:
["> 100 µM", "> 100 µM", "0.163 µM"]

====

Test system: HS 578T breast
Assay: NCI tumour cell line growth inhibition, 48 h
So I've got a bunch of molecules here, and I need their GI50 values.

Reference set, count: 4
{"molecule": "CC(=O)OC1COC(Oc2c(C)c3c4c(c2O)[C@@H](C)CC[C@@H]4[C@@H](C)C[C@H]3C=C(C)C)C(O)C1OC(C)=O (stereo not given in full)", "GI50": "46.8 µM"}
{"molecule": "c1ccc(-c2nnc(-c3ccccn3)s2)nc1", "GI50": "> 100 µM"}
{"molecule": "COc1ccc(OC)c2c1[nH]c(=O)c1c3ccccc3cn21", "GI50": "2.18 µM"}
{"molecule": "Cn1c(I)c(C#CCO[Si](C)(C)C(C)(C)C)c(=O)[nH]c1=O", "GI50": "20.1 µM"}

Prompt: Consider the molecule COc1cc(Nc2ncccc2C(=O)NCc2cn(Cc3cccc(Oc4ccccc4)c3)nn2)cc(OC)c1 and give its measured GI50.
Response: > 100 µM
